# METHOD: small-molecule microarray binders of probe aCHRDL2, primary screen, biochemical, biotinylated probe, 635/667 nm fluorescence (AID 1100)
# MEASUREMENT_CONDITIONS: higher = more signal
METRIC: composite z-score

• COCCOC(=O)N1C(=O)[C@@]2(c3cc(C#Cc4ccc(OC)cc4)ccc31)[C@H](c1ccc(O)cc1)N1[C@H](c3ccccc3)[C@H](c3ccccc3)OC(=O)[C@H]1[C@@H]2C(N)=O = -0.21
• CN(C)CCCNC(=O)[C@@H]1c2ccccc2C(=O)N(Cc2cc(F)cc(C(F)(F)F)c2)[C@H]1c1ccc(CO)cc1 = 0.17
• COC(=O)C1=C(C)[C@@H](O)[C@@H](C)[C@H](c2c(OC)c(OC)c(C)c(OC)c2OC)O1 = -0.595
• CC(C)=CCCC(C)=CCON=C1[C@H]2CCn3c(=O)n(C)c(=O)n3[C@H]2[C@H](O)[C@@H]2O[C@H]12 = -0.378
• CCc1cc2c(nc1CC)CCN(CCC(C)=NOC[C@@H](O)COCc1ccco1)C2 = 0.202
• CCOC(=O)C[C@H]1[C@H](OC(=O)c2ccc(C(=O)c3ccccc3)cc2)[C@@H](NC(=O)c2ccc(-c3ccccc3)cc2)c2cc(OCCCO)ccc2N1C(=O)c1ccc2ccccc2n1 = -0.432
• C=C(COC)/C(=C/C[C@H](OC(=O)c1ccncc1)c1ccc(CO)o1)c1cc(C(=O)OC)ccc1OC = -0.0885

----------
# METHOD: splicing luciferase reporter signal modulators, primary screen, spliceosome inhibition project, cell-based, HEK293, splice +/- reporter (AID 1101);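 note: HEK293 cells carrying a splicing-competent luciferase reporter gene; test concentration not given here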
# MEASUREMENT_CONDITIONS: luminescence, 24 h, higher = more signal, called active from +8 up or from −8 down
The entries below are paired with their reported z-score.
METRIC: z-score

* Cc1ccc(S(=O)(=O)N[C@@H]2COC(=O)[C@H](C)COC(=O)CC=C[C@H]2C)cc1 | 0.159
* CCOC(=O)CCN1C(=O)[C@H]2[C@H]3[C@H](O)[C@H](O)CC(=NNC(=O)OCc4ccc(OC)cc4)[C@@H]3CC[C@H]2C1=O | 0.454
* CCCNC(=O)OC[C@H]1O[C@H](CCON=CC[C@@H]2C=C[C@H](OC(C)=O)[C@@H](COC(C)=O)O2)C=C[C@@H]1Oc1ccc(OC)cc1 | 0.599
* C#C[C@@H](CC)O[Si](C#Cc1ccc(Oc2ccccc2)cc1)(C(C)C)C(C)C | -1.17
* CC(=O)OC[C@H]1O[C@H](CCON=C(C)CCN2CCc3nc(-c4ccccc4)c(-c4ccccc4)cc3C2)C=C[C@@H]1OC(C)=O | 0.82
* CCc1cc2c(nc1CC)CCN(CCC(C)=NO[C@@H](C)c1cc(-c3c(C)cc(C)cc3C)no1)C2 | -0.596
* COc1ccc([Si](C)(C)[C@@H]2[C@@H](CCO)O[C@]3(C(=O)N(Cc4ccc(NC(C)=O)cc4)c4ccccc43)[C@H]2C)cc1 | -2.27

----------
# METHOD: binders from COS7 lysate, DM2A8 probe, primary screen, torsin A project, cell lysate, small-molecule microarray, fluorescence 635/667 (AID 1065)
# MEASUREMENT_CONDITIONS: higher = more signal, COS7 lysate expressing mutant human TOR1A
The entries below are paired with their reported composite z-score.
METRIC: composite z-score

- COC(=O)[C@@]1(Cc2ccc(OC)cc2)[C@H]2c3cc(C(=O)N4CCCC4)n(Cc4cc(F)c(F)c(F)c4)c3C[C@H]2CN1C(=O)c1ccccc1: 1.05
- COCCOC(=O)N1C(=O)[C@@]2(c3cc(C#Cc4ccc(OC)cc4)ccc31)[C@H](C(=O)N1CCN(c3ncccn3)CC1)[C@H]1C(=O)O[C@H](c3ccccc3)[C@H](c3ccccc3)N1[C@@H]2c1ccc(OCCO)cc1: -0.473
- CC(C)NC(=O)[C@@]1(C)c2ccccc2C(=O)N(Cc2cc(F)cc(C(F)(F)F)c2)[C@H]1c1ccc(CO)cc1: 0.0214
- COC(=O)CC=C[C@@H](C)[C@H](OC)c1ccccc1Br: 1.46
- CO[C@@H]1COC(=O)CC=C[C@@H](C)[C@H](OC)COC(=O)[C@H](COCc2ccccc2)NC(=O)CC=C[C@H]1C: 0.843
- C#C[C@@H]1Oc2ccccc2S(=O)(=O)N2CCC[C@H]12: 0.143
- c1ccc(C2NCCc3c2[nH]c2ccccc32)cc1 (stereo unspecified): 0.548
- COC(=O)[C@H]1COC(c2ccc(OCCCO)cc2)=N1: -0.354
- COCCOC(=O)N1C(=O)[C@@]2(c3cc(C#CCNC(N)=O)ccc31)[C@H](c1ccccc1OCCO)N1[C@H](c3ccccc3)[C@H](c3ccccc3)OC(=O)[C@H]1[C@@H]2C(=O)N1CCN(c2ncccn2)CC1: 1
- CC(CCN1CCc2nc(-c3ccccc3)c(-c3ccccc3)cc2C1)=NOC[C@@H](C)[C@H](OCc1ccccc1)C(C)C: -1.01
- CCOC(=O)CCN1C(=O)[C@H]2[C@H]3[C@H](O)[C@H](O)CC(=O)[C@H]3CC[C@H]2C1=O: 0.418
- CCOC(=O)[C@H](Cc1ccccc1)NC(=O)CCC1CC(OC(=O)NCc2ccc3c(c2)OCO3)CC2(CCCC(COC(=O)NCc3ccccc3)O2)O1 (stereo partly specified): 0.204
- COC(=O)CC=C[C@H](C)[C@@H](OCc1ccccc1Br)C(C)C: 0.398
- C=C(/C(=C/C[C@H](OC(C)=O)c1ccc(OCCO)cc1)c1cnc2ccccc2c1)C(C)C: 0.214
- O=C(CS)NCCCCCNC(=O)[C@@H]1C[C@@H]2C(=O)N[C@@H](Cc3ccccc3)C(=O)N2[C@@H]1c1ccc(O)cc1: 0.524
- Cn1c(=O)n2n(c1=O)[C@H]1[C@H](O)[C@@H]3O[C@@H]3C(=NOC[C@@H](O)COCc3ccco3)[C@H]1CC2: 0.614
- CCOC(=O)CCN1C(=O)[C@H]2[C@H]3[C@H](O)[C@H](O)CC(=NNC(=O)OCc4ccc(OC)cc4)[C@@H]3CC[C@H]2C1=O: 0.336
- COc1cccc([C@H]2Oc3ccc(OC)cc3C(=NOC(C)CN3CCCc4nc(C)c(C)cc43)[C@@H]2O)c1 (stereo partly specified): 0.15
- C=C(/C(=C/C[C@@H](OC(=O)c1ccncc1)c1ccc(OCCO)cc1)c1cnc2ccccc2c1)C(C)C: -0.0128
- COC(=O)[C@H](C)NC(=O)CCC1CC(OC(=O)NCCc2ccc(F)cc2)CC2(CCCC(COC(=O)NCCc3ccc(Cl)cc3)O2)O1 (stereo partly specified): 1.39
- COc1ccccc1CN1C(=O)c2ccccc2[C@@]2(Cc3ccccc3N(C(C)C)C2=O)[C@@H]1c1ccc(CO)cc1: -0.336
- CC(=O)OC[C@H]1O[C@H](C#CCCCc2ccccc2)C=C[C@@H]1OC(C)=O: 0.105
- CCN(CC)c1ccc(N2CC=CC34O[C@@H]5/C=C\CCC(C)OC(=O)C5[C@H]3C(=O)N(CCCO)[C@@H]4C2=O)cc1 (stereo partly specified): 0.215
- CC1CC/C=C\[C@H]2OC34C=CCN(C(C)C)C(=O)[C@H]3N(CCCO)C(=O)[C@@H]4C2C(=O)O1 (stereo partly specified): 1.1
- CN1C(=O)C2C=CC(C(O)c3ccc(Br)cc3)N(N(c3ccccc3)c3ccccc3)C2C1=O (stereo unspecified): -0.225
- COC(=O)[C@]1(CO)N=C(c2ccc(OCCCO)cc2)O[C@@H]1c1ccccc1N=[N+]=[N-]: 0.525
- C#CCCCON=C1C[C@@H](O)[C@@H](O)[C@@H]2[C@@H]3C(=O)N([C@@H](C)c4ccccc4)C(=O)[C@@H]3CC[C@H]12: -0.0639
- Cc1ccc(S(=O)(=O)N[C@@H]2COC(=O)[C@H](C)COC(=O)CC=C[C@H]2C)cc1: 0.133
- COC(=O)[C@H](C)NC(=O)CCC1CC(OC(=O)NCCc2ccc(F)cc2)CC2(CCCC(COC(=O)NCC(c3ccccc3)c3ccccc3)O2)O1 (stereo partly specified): -0.266
- COC(=O)C1=CCC(c2cccc(Cl)c2)O1 (stereo unspecified): -0.0992
- COC(=O)[C@@H]1CC[C@H](C)[C@@H](c2ccc(C)cc2)N1C(=O)c1ccc(C=NOC[C@@H](O)COCc2ccco2)cc1: 0.239

----------
The entries below are paired with their reported composite z-score.
# System: Wnt5a (protein binding on small-molecule microarray)
# METHOD: Wnt5a binders on small-molecule microarray, primary screen, biophysical, 635/667 nm fluorescence (AID 1142);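 note: fluorescence read at 667 nm with signal to noise per printed feature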
# MEASUREMENT_CONDITIONS: 635 nm fluorescence, higher = more signal
METRIC: composite z-score

- CC(CCN1CCCCc2nc(C)c(C)cc21)=NOC(C)CN1CCCCc2nc(C)c(C)cc21 (configuration not stated): 0.183
- C#C[C@@H](CC)O[Si](C#Cc1ccc(Oc2ccccc2)cc1)(C(C)C)C(C)C: 0.142
- CCCNC(=O)[C@@H]1c2ccccc2C(=O)N(c2ccc(C)cn2)[C@H]1c1ccc(CO)cc1: -0.108
- CN(C)CCCNC(=O)[C@@H]1c2ccccc2C(=O)N(Cc2cc(F)cc(C(F)(F)F)c2)[C@H]1c1ccc(CO)cc1: 0.095
- CC(CCN1CCc2nc(-c3ccccc3)c(-c3ccccc3)cc2C1)=NOC[C@@H](C)[C@H](OCc1ccccc1)C(C)C: -0.492
- Cc1cc2c(nc1C)CCCN2CC(C)ON=C1[C@H]2CCn3c(=O)n(-c4ccccc4)c(=O)n3[C@H]2[C@H](O)[C@@H]2O[C@H]12 (some centres not stated): 0.337
- Cc1ccc(S(=O)(=O)N[C@@H]2COC(=O)[C@H](C)COC(=O)CC=C[C@H]2C)cc1: 0.0114
- C=CC[C@@H]1C=C[C@H](ON=C(C)CCN2CCc3nc(CC)c(CC)cc3C2)[C@@H](CO)O1: 0.255
- CO[C@H]1COC(=O)[C@@H]2CCCN2C(=O)[C@@H](C)COC(=O)CC=C[C@@H]1C: 0.055
- CCOC(=O)CCN1C(=O)[C@H]2[C@H]3[C@H](O)C=CC(=O)[C@@H]3CC[C@H]2C1=O: -0.244
- CCN1C(=O)[C@H]2[C@H]3[C@H](O)[C@H](O)CC(=NOCc4ccccc4)[C@H]3CC[C@H]2C1=O: -0.0887
- CN(C)C(=O)[C@@]1(Cc2ccccc2)N=C(c2ccc(OCCCO)cc2)O[C@H]1c1ccccc1CN=[N+]=[N-]: 1.45
- CC(C)(C)N1CC=CC23O[C@@H]4C=CCCOC(=O)C4[C@H]2C(=O)N(CCCCCO)[C@@H]3C1=O (some centres not stated): 0.37
- CC(C)CN1CCc2nc(-c3ccccc3)c3c(c2CC1)CO[C@@H](C)C3: 0.134
- CN1C(=O)C2C=CC(C(O)C(c3ccccc3)c3ccccc3)N(NC(=O)OC(C)(C)C)C2C1=O (configuration not stated): 0.843
- c1ccc(C2NCCc3c2[nH]c2ccccc32)cc1 (configuration not stated): -0.18
- C=C(/C(=C/C[C@H](OC(=O)c1ccncc1)c1ccc(OCCO)cc1)c1cnc2ccccc2c1)C(C)C: 1.32
- CC(C)N1CC=CC23O[C@@H]4C=CCCOC(=O)C4[C@H]2C(=O)N(CCCCCCO)[C@@H]3C1=O (some centres not stated): -0.952
- CCOC(=O)NN=C1C[C@@H](O)[C@@H](O)[C@@H]2[C@@H]3C(=O)N(C[C@@H]4CCCO4)C(=O)[C@@H]3CC[C@@H]12: -0.0127
- COc1cccc([C@@H]2Oc3ccc(Br)cc3C(=O)[C@H]2O)c1: 0.134
- C[C@@H](c1ccccc1)N1C(=O)[C@H]2[C@H]3[C@H](O)[C@H](O)CC(=NOC[C@@H](O)COCc4ccco4)[C@@H]3CC[C@H]2C1=O: -0.253
- CCCNC(=O)OC[C@H]1O[C@H](CCON=C[C@@H](OC)[C@H](C)C=CCC(=O)OC)C=C[C@@H]1Oc1ccc(OC)cc1: -0.0615
- CCOC(=O)[C@H](Cc1ccccc1)NC(=O)CCC1CC(OC(=O)NCc2ccc3c(c2)OCO3)CC2(CCCC(COC(=O)NCC3CCCCC3)O2)O1 (some centres not stated): 0.0472
- COC(=O)CC1OC1[C@H](C)[C@@H](OC)C(C)C (some centres not stated): -0.0087
- CO[C@H]1COC(=O)CC=C[C@H](C)[C@@H](NS(=O)(=O)c2ccc(C)cc2)COC(=O)CC=C[C@@H]1C: 0.0341
- CCOC(=O)CCN1C(=O)[C@H]2[C@H]3[C@H](O)[C@H](O)CC(=NNC(=O)OCc4ccc(OC)cc4)[C@@H]3CC[C@H]2C1=O: -0.109
- CCOC(=O)NN=C1C[C@@H](O)[C@@H](O)[C@@H]2[C@@H]3C(=O)N(C4CCCCC4)C(=O)[C@@H]3CC[C@H]12: -0.064
